Molecular target: hGPR17L (Homo sapiens)
Sequence (Q13304 whole entry): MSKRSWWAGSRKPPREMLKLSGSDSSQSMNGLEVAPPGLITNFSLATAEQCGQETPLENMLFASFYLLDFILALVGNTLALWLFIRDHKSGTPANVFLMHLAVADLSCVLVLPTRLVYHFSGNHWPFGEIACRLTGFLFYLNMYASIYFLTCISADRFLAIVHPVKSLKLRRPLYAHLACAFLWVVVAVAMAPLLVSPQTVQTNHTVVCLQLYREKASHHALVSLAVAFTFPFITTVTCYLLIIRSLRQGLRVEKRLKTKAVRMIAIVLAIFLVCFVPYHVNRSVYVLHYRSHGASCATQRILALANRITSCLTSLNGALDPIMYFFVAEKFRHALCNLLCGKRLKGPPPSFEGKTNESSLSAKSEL
Test: GLP-1 secretion from GLUTag cells expressing hGPR17L
Type: cell-based
Design: host or cells: GLUTag cells (murine enteroendocrine line), adenoviral transduction
Conditions: 10 µM forskolin and 10 µM IBMX, no antagonist; read-out: IC50, inhibition of F/I-stimulated GLP-1 secretion
Method: GLUTag cells were maintained in Dulbecco’s Modified Eagle Medium (DMEM) supplemented with 10% fetal bovine serum and 1% penicillin–streptomycin in a humidified incubator at 37 °C and 5% CO2. […] GLUTag cells were seeded into poly-D-lysine-coated 96-well plates and transduced with adenovirus as specified above and then tested for GLP-1 secretion. […] Plates were then centrifuged at 300× g for 1 min at 4 °C, and 75 µL of the supernatant was removed and frozen at −80 °C until subsequent GLP-1 quantification. […]
Measure: pIC50
To interpret pIC50, take it as minus log10 of a concentration measured in moles per litre.

Give the reported pIC50 for this molecule. O=C(O)CCc1c(C(=O)O)[nH]c2cc(Cl)cc(Cl)c12 6.52

src = paper PMC11762167
